# credit: the supplement of paper PMC10307832

Tested on: EKVX
Assay: relative viability (nuclei count vs DMSO), 5 days (fraction); higher = more cells survive
Conditions: first compound 0.3162 µM
Overview of reported relative viability across a group of molecules:

molecule: CC(C)Oc1cc(Nc2nc(N[C@@H](C)c3ccc(F)cn3)ncc2Cl)n[nH]1 [AZ23] + COc1cc2c(Oc3ccc(NC(=O)C4(C(=O)Nc5ccc(F)cc5)CC4)cc3F)ccnc2cc1OCCCN1CCOCC1 [Foretinib] (partner 0.25 µM)
relative viability: 0.565
--
molecule: CC(C)Oc1cc(Nc2nc(N[C@@H](C)c3ccc(F)cn3)ncc2Cl)n[nH]1 [AZ23] + CC(=O)c1c(C)c2cnc(Nc3ccc(N4CCNCC4)cn3)nc2n(C2CCCC2)c1=O [Palbociclib] (partner 0.5 µM)
relative viability: 0.358
